Entry source: ChEMBL document CHEMBL5523758

Target: Muscarinic acetylcholine receptor M4 (Homo sapiens)
Sequence (whole entry): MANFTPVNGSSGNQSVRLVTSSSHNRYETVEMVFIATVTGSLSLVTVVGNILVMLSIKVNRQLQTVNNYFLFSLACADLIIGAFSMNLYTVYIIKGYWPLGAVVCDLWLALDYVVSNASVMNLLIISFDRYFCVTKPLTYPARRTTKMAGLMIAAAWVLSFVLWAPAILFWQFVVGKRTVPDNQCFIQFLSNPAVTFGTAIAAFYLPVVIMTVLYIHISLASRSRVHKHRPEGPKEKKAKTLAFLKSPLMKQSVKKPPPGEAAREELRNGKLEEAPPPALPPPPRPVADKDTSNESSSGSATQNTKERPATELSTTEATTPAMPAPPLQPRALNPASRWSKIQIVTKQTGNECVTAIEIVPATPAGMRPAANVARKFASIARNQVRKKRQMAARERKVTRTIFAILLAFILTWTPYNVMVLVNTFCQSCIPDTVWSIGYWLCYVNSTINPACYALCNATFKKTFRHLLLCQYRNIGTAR
Conditions: Flp-In-CHO, filed as positive allosteric modulator
Description: Positive allosteric modulation at human M4 mAChR stably expressed in Flp-In-CHO cells co-transfected with CAMYEL biosensor assessed as ACh-induced CAMYEL activation by measuring log of operational efficacy by BRET assay

>  <Given Smiles>
Cc1ccc(-c2cnn(CCCCC#N)c2)c(-c2ccc3c(c2)C(=O)N(C)C3)n1

>  <log(activity)>
0.28

$$$$
>  <Given Smiles>
COC(=O)CCCn1cc(-c2ccc(C)nc2-c2ccc3c(c2)C(=O)N(C)C3)cn1

>  <log(activity)>
0.18

$$$$
>  <Given Smiles>
CN1Cc2ccc(-c3nc4ccccc4cc3-c3cnn(CC4CCCC4)c3)cc2C1=O

>  <log(activity)>
0.84

$$$$
>  <Given Smiles>
Cc1cnc(-c2ccc3c(c2)C(=O)N(C)C3)c(-c2cnn(CC3CCCC3)c2)c1

>  <log(activity)>
1.17

$$$$
>  <Given Smiles>
Cc1ccc(-c2cnn(CC3CCCC3)c2)c(-c2ccc3c(c2)C(=O)N(CC#N)C3)n1

>  <log(activity)>
0.48

$$$$
>  <Given Smiles>
Cc1ccc(-c2cnn(CC3CCCC3)c2)c(-c2ccc3c(c2)C(=O)N(C)C3)n1

>  <log(activity)>
0.25

$$$$
>  <Given Smiles>
Cc1ncc(-c2cnn(CC3CCCC3)c2)c(-c2ccc3c(c2)C(=O)N(C)C3)n1

>  <log(activity)>
0.1

$$$$
>  <Given Smiles>
Cc1ccc(-c2cnn(CC3CCCC3)c2)c(-c2ccc3c(c2)C(=O)NC3)n1

>  <log(activity)>
0.5

$$$$
